STUDY SYSTEM: Voltage-gated potassium channel subunit beta-2 (Rattus norvegicus)
TEST NAME: enhancers of rat Kvbeta2 NADPH turnover – biochemical, NADPH fluorescence, primary screen (AID 623);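 further: fluorescence intensity change per second fitted from 20 to 320 s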
SETUP CONDITIONS: Recombinant KvBeta, NADPH fluorescence decrease slope, 10 min; at 10 µM; hits give low values
Calls of active or inactive are those of the source.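 How the source made its calls: active means NADPH fluorescence slope more negative than the mean of all samples by about 3 SD, 99.7% confidence; inactive means the rest.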

[
  {
    "MOLECULE": "Cc1cccc(NC(=O)CC(C)(C)C)c1",
    "NADPH fluorescence slope": "2.2e-05 (inactive)"
  },
  {
    "MOLECULE": "Cc1ccc(-n2c3c(cc(C(=O)NC4CCSC4=O)c2=O)C(=O)CC(C)(C)C3)cc1 (centres undefined)",
    "NADPH fluorescence slope": "-8.6e-06 (inactive)"
  },
  {
    "MOLECULE": "CCOC(=O)c1cc2sc(C)cc2n1C(C)C(=O)OCC (centres undefined)",
    "NADPH fluorescence slope": "-3.9e-05 (inactive)"
  },
  {
    "MOLECULE": "CC1(C)Cc2cccc(OCC(O)CN3CCN(c4ccccn4)CC3)c2O1 (centres undefined)",
    "NADPH fluorescence slope": "-2e-05 (inactive)"
  },
  {
    "MOLECULE": "CC1CCN(C(=O)CSc2nc3c(cnn3-c3ccccc3)c(=O)[nH]2)CC1",
    "NADPH fluorescence slope": "-2.5e-05 (inactive)"
  },
  {
    "MOLECULE": "CN(C)c1cc(NC(=O)CN2CCOCC2)c2ccccc2n1",
    "NADPH fluorescence slope": "-3.5e-05 (inactive)"
  },
  {
    "MOLECULE": "O=C(CSc1nnc(-c2ccccc2F)o1)OCc1ccccc1",
    "NADPH fluorescence slope": "1.9e-05 (inactive)"
  },
  {
    "MOLECULE": "O=C(Nc1cnn(C23CC4CC(CC(C4)C2)C3)c1)c1cnn2c(C(F)(F)F)cc(-c3ccco3)nc12",
    "NADPH fluorescence slope": "-2.2e-05 (inactive)"
  },
  {
    "MOLECULE": "CC1CCCN(C(=O)CN2C(=O)c3ccccc3C2=O)C1 (centres undefined)",
    "NADPH fluorescence slope": "-3.7e-05 (inactive)"
  },
  {
    "MOLECULE": "COc1ccccc1N(CC(=O)NCc1ccccn1)S(C)(=O)=O",
    "NADPH fluorescence slope": "-4.6e-05 (inactive)"
  },
  {
    "MOLECULE": "CCc1ccc(N2CC(C(=O)OCC(=O)Nc3cc(C)on3)CC2=O)cc1 (centres undefined)",
    "NADPH fluorescence slope": "-2.5e-05 (inactive)"
  },
  {
    "MOLECULE": "Nc1ncnc(Nc2ccccc2C(F)(F)F)n1",
    "NADPH fluorescence slope": "4.7e-05 (inactive)"
  },
  {
    "MOLECULE": "CC(=O)NC(C)c1nc2ccccc2n1C(C)C (centres undefined)",
    "NADPH fluorescence slope": "-2.4e-05 (inactive)"
  },
  {
    "MOLECULE": "O=S(=O)(c1ccc2ccccc2c1)N1CCCCC1",
    "NADPH fluorescence slope": "-2.4e-06 (inactive)"
  },
  {
    "MOLECULE": "O=C(O)c1c(Cl)c(Cl)c(Cl)c(Cl)c1C(=O)N1CCOCC1",
    "NADPH fluorescence slope": "-3.3e-05 (inactive)"
  },
  {
    "MOLECULE": "CCOC(=O)C1(C)NC(c2ccc(OC)c(OC)c2)C2C(=O)N(CC)C(=O)C21 (centres undefined)",
    "NADPH fluorescence slope": "-9.8e-06 (inactive)"
  },
  {
    "MOLECULE": "C=CCSC1=C(C#N)C(c2ccccc2C)CC(=O)N1 (centres undefined)",
    "NADPH fluorescence slope": "-1.1e-05 (inactive)"
  },
  {
    "MOLECULE": "O=C(c1ccco1)N1CCN(S(=O)(=O)c2ccc(Oc3ccccc3)cc2)CC1",
    "NADPH fluorescence slope": "2.5e-06 (inactive)"
  },
  {
    "MOLECULE": "Cc1ccc(NC(=O)CSc2nnc(-c3ccncc3)n2C)cc1C",
    "NADPH fluorescence slope": "4.1e-06 (inactive)"
  },
  {
    "MOLECULE": "COc1ccc(-c2nc(C#N)c(N3CCOCC3)o2)cc1OC",
    "NADPH fluorescence slope": "-1.9e-05 (inactive)"
  },
  {
    "MOLECULE": "Cc1ccc(C(C(=O)NC2CCCCC2)N(C(=O)c2csnn2)C2CCCC2)o1 (centres undefined)",
    "NADPH fluorescence slope": "1.5e-05 (inactive)"
  },
  {
    "MOLECULE": "Cc1ccc(C(C(=O)NC(C)(C)C)N(C(=O)c2csnn2)c2cccc(F)c2)o1 (centres undefined)",
    "NADPH fluorescence slope": "8.2e-06 (inactive)"
  },
  {
    "MOLECULE": "COc1cc(C(=O)Nc2cccc(-c3nncn3C)c2)cc(OC)c1OC",
    "NADPH fluorescence slope": "-2.8e-05 (inactive)"
  },
  {
    "MOLECULE": "Clc1cccc(Nc2c3c(nc4ncnn24)CCC3)c1",
    "NADPH fluorescence slope": "-2.2e-07 (inactive)"
  },
  {
    "MOLECULE": "COc1ccc(OC)c(CNC(=O)COc2cc(=O)n(C)c3ccccc23)c1",
    "NADPH fluorescence slope": "-7.1e-06 (inactive)"
  },
  {
    "MOLECULE": "Cc1cc(C(F)(F)F)nn1Cc1ccc(C(=O)NCc2ccco2)o1",
    "NADPH fluorescence slope": "-2.7e-05 (inactive)"
  },
  {
    "MOLECULE": "COc1ccc(-n2c(SCC(=O)c3c(N)n(C)c(=O)n(C)c3=O)nc3ccccc32)cc1",
    "NADPH fluorescence slope": "-4.1e-05 (inactive)"
  },
  {
    "MOLECULE": "CCC1SC2=NC(C)=C(C(=O)OC)C(c3ccc(C)cc3)N2C1=O (centres undefined)",
    "NADPH fluorescence slope": "-6.5e-05 (inactive)"
  },
  {
    "MOLECULE": "O=C(Nc1ncc(Cc2ccccc2)s1)C1CCCO1 (centres undefined)",
    "NADPH fluorescence slope": "-1.3e-05 (inactive)"
  },
  {
    "MOLECULE": "Cc1csc(SCc2nc3sc4c(c3c(=O)[nH]2)CCC4)n1",
    "NADPH fluorescence slope": "-1.4e-05 (inactive)"
  },
  {
    "MOLECULE": "CCN(CC)CCOC(=O)c1ccc(NC(=O)COc2cc(=O)n(CC)c3ccccc23)cc1",
    "NADPH fluorescence slope": "4.9e-05 (inactive)"
  },
  {
    "MOLECULE": "Cc1ccc2cccc(SCC(=O)N3CCOCC3)c2n1",
    "NADPH fluorescence slope": "7.7e-06 (inactive)"
  },
  {
    "MOLECULE": "Cc1nc2ncnn2c(Nc2ccc3c(c2)OCCO3)c1C",
    "NADPH fluorescence slope": "-4.3e-05 (inactive)"
  },
  {
    "MOLECULE": "COc1ccccc1NC(=O)c1ccc(COc2ccccc2OC)o1",
    "NADPH fluorescence slope": "2.4e-05 (inactive)"
  }
]
